So I've got a bunch of molecules here, and I need their herbicidal effect rating, SAGPY values.
System: Sagittaria pygmaea, L.
Assay: Preemergence weed control under flooded paddy conditions, SAGPY (Arrowhead (Pygmaea)); further: meaning of each grade not given here
Assay type: in vivo
Conditions: Rate 0.0620 kg/ha; preemergence, flooded paddy; rated three to four weeks after treatment
Answers are plain numbers.

{"chemical string": "Cn1c(C(F)(F)F)cc(=O)n(-c2ccc3snc(C(C#N)=Cc4cnc[nH]4)c3c2)c1=O", "herbicidal effect rating, SAGPY": 0.0}
{"chemical string": "COc1ccc(COC(=O)C(C)(C)c2nsc3ccc(-n4c(=O)cc(C(F)(F)F)n(C)c4=O)cc23)cc1", "herbicidal effect rating, SAGPY": 5.0}
{"chemical string": "CCCCS(=O)(=O)OCc1nsc2ccc(-n3c(=O)cc(C(F)(F)F)n(C)c3=O)cc12", "herbicidal effect rating, SAGPY": 5.0}
{"chemical string": "Cn1c(C(F)(F)F)cc(=O)n(-c2ccc3snc(COC(=O)Cc4ccccc4Cl)c3c2)c1=O", "herbicidal effect rating, SAGPY": 0.0}
{"chemical string": "C=CCONC(=O)c1nsc2ccc(-n3c(=O)cc(C(F)(F)F)n(C)c3=O)cc12", "herbicidal effect rating, SAGPY": 0.0}
{"chemical string": "COc1ccccc1C=C(C#N)c1nsc2ccc(-n3c(=O)cc(C(F)(F)F)n(C)c3=O)cc12", "herbicidal effect rating, SAGPY": 0.0}

Please look at the items below and tell me herbicidal effect rating, SAGPY for each one, in order.
1. Cc1ccc(OC(C)(C)C(=O)NS(C)(=O)=O)c(-c2nsc3ccc(-n4c(=O)cc(C(F)(F)F)n(C)c4=O)cc23)c1
2. Cn1c(C(F)(F)F)cc(=O)n(-c2ccc3snc(C(C#N)=Cc4ccoc4)c3c2)c1=O
3. Cc1ccc(C=C(C#N)c2nsc3ccc(-n4c(=O)cc(C(F)(F)F)n(C)c4=O)cc23)cc1

[0.0, 0.0, 0.0]

Please look at the items below and tell me herbicidal effect rating, SAGPY for each one, in order.
1. CC(=O)OCCOC(=O)COc1ccc(C)cc1-c1nsc2ccc(-n3c(=O)cc(C(F)(F)F)n(C)c3=O)cc12
2. CN(C(=O)c1nsc2ccc(-n3c(=O)cc(C(F)(F)F)n(C)c3=O)cc12)S(C)(=O)=O

6.0
2.0

* * *

Test system: Oryza sativa, (L.) Tebonnet
Experiment: Rice tolerance to post-transplant applications under flooded paddy conditions (Example 187), ORYSAT (Rice, Tebonnet)
Conditions: 0.2500 kg/ha, rated three to four weeks after treatment
So I've got a bunch of molecules here, and I need their herbicidal effect rating, ORYSAT (rice tolerance) values.
Numbers only.

Some solved entries appear below for comparison.
{"chemical string": "COc1ccc(C)cc1-c1nsc2ccc(-n3c(=O)cc(C)n(C)c3=O)cc12", "result": 4.0}
{"chemical string": "Cn1c(C(F)(F)F)cc(=O)n(-c2ccc3snc(-c4ccccc4)c3c2)c1=O", "result": 8.0}
{"chemical string": "Cn1c(C(F)(F)F)cc(=O)n(-c2ccc3snc(NS(C)(=O)=O)c3c2)c1=O", "result": 0.0}

Consider the additional molecule presented here.
Lookup result for `COCCOC(=O)COc1ccc(C)cc1-c1nsc2ccc(-n3c(=O)cc(C(F)(F)F)n(C)c3=O)cc12` ; measured herbicidal effect rating, ORYSAT (rice tolerance): 6.0

* * *

Tested on: Cyperus iria
Test: Preemergence weed control under flooded paddy conditions, CYPIR (Rice Flatsedge); further: meaning of each grade not given here
Format: in vivo
Conditions: Rate 0.0620 kg/ha; preemergence, flooded paddy; rated 3-4 weeks after treatment
assay readout: herbicidal effect rating, CYPIR
Numbers only.

{"chemical string": "CCOC(=O)C(F)(F)Oc1ccc(C)cc1-c1nsc2ccc(-n3c(=O)cc(C(F)(F)F)n(C)c3=O)cc12", "assay readout": "herbicidal effect rating, CYPIR", "result": 0.0}
{"chemical string": "Cc1ccc(OCC(=O)C(C)(C)C)c(-c2nsc3ccc(-n4c(=O)cc(C(F)(F)F)n(C)c4=O)cc23)c1", "assay readout": "herbicidal effect rating, CYPIR", "result": 8.0}

Lookup result for `C=CS(=O)(=O)NC(=O)COc1ccc(C)cc1-c1nsc2ccc(-n3c(=O)cc(C(F)(F)F)n(C)c3=O)cc12` ; measured herbicidal effect rating, CYPIR: 6.0
